Experiment Description: thallium influx changes without GIRK channels – cell-based, HEK-293 rmGlu8, no GIRK, thallium flux, counter-screen for GIRK activator project, confirmation (AID 623868);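 further: extra codes mark interference with 3 for fluorescent and 4 for baseline rise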
Details: thallium flux fluorescence, at 10 µM, actives lie on both sides, codes: 1 enhancer, -1 blocker, 0 none, thallium stimulus containing EC20 glutamate
Among all 2,100 compounds or so, about 760 (36%) were called active. Only a sample is shown.
Form field: manual score (one value per entry).
Respond using a number only.

{"Compound": "O=C(CSCC(=O)N1CCCCC1)Nc1nc(-c2ccc(Cl)s2)cs1", "Value Observed": 0}
{"Compound": "CCCCN1C(=O)c2ccccc2C1C(=O)NC1CCCC1 (stereo not drawn)", "Value Observed": 0}
{"Compound": "O=P(CCCCCCCCCP(=O)(c1ccccc1)c1ccccc1)(c1ccccc1)c1ccccc1", "Value Observed": -0.5}
{"Compound": "COc1cc(NC(=O)CSCc2cnn(-c3ccccc3)c2-n2cccc2)cc(OC)c1", "Value Observed": 0}
{"Compound": "Cc1ccc(NC(=S)NNc2ncc(C(F)(F)F)cc2Cl)c(C)c1", "Value Observed": 1}

[ask] Kindly indicate its recorded manual score. Item: CCCN(CCC)CCNC(=O)C(NS(=O)(=O)c1ccc2c(c1)CCC(=O)N2)c1ccccc1 (stereo not drawn)
[reply] 0

----------
Experiment Description: thallium influx changes without GIRK channels – cell-based, HEK-293 rmGlu8, no GIRK, thallium flux, counter-screen for GIRK activator project, confirmation (AID 623868);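 further: extra codes mark interference with 3 for fluorescent and 4 for baseline rise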
Details: thallium flux fluorescence, at 10 µM, actives lie on both sides, codes: 1 enhancer, -1 blocker, 0 none, thallium stimulus containing EC20 glutamate
Among all 2,100 compounds or so, about 760 (36%) were called active.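 How the source made its calls: active means thallium-flux fluorescence traces judged by eye to show enhanced or reduced glutamate response, manual score 1 or -1, so both directions (some results past the limit were not filed as active); inactive means the rest, including fluorescent or raised-baseline compounds.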 Not all results are given here.
Assign a class; possible classes are class 1 for active, class 0 for inactive

Use the examples below as a reference point.
{"Molecule": "CCCCN(CCCC)c1nc2ccccc2nc1C(C#N)C(=O)NCCCOC (centres undefined)", "Label Class": "class 0"}
{"Molecule": "CC(/C=N/n1c(-c2ccc(Cl)cc2)n[nH]c1=S)=C\\c1ccco1", "Label Class": "class 1"}
{"Molecule": "COc1ccc(-c2c3c(=O)n(C)c(=O)n(C)c3cn2-c2ccccc2)cc1", "Label Class": "class 0"}
{"Molecule": "C/C(=N\\NC(N)=S)c1ccc(Cl)s1", "Label Class": "class 0"}
{"Molecule": "O=C(N/N=C1\\CCCc2ccccc21)c1ccc([N+](=O)[O-])cc1", "Label Class": "class 1"}

[ask] GET /call?item= "Cn1c(=O)c(NCCc2ccccc2)c2c3c(cccc31)C(=O)c1ccccc1-2" returns the recorded outcome of this test.
[reply] class 0

----------
Experiment Description: thallium influx changes without GIRK channels – cell-based, HEK-293 rmGlu8, no GIRK, thallium flux, counter-screen for GIRK activator project, confirmation (AID 623868);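 further: extra codes mark interference with 3 for fluorescent and 4 for baseline rise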
Details: thallium flux fluorescence, at 10 µM, actives lie on both sides, codes: 1 enhancer, -1 blocker, 0 none, thallium stimulus containing EC20 glutamate
About 760 (36%) of roughly 2,100 compounds were called active.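 How the source made its calls: active means thallium-flux fluorescence traces judged by eye to show enhanced or reduced glutamate response, manual score 1 or -1, so both directions (some results past the limit were not filed as active); inactive means the rest, including fluorescent or raised-baseline compounds.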 Not all results are given here.
Lab note: assign the record to one of active, inactive

// known answers, use as guide
{"Compound": "O=C(CCc1ccccc1)NNC(=S)NC(=O)c1ccc(Cl)cc1", "Label Class": "active"}
{"Compound": "COc1cccc(NC(=O)CC2COc3ccccc3O2)c1 (stereo not drawn)", "Label Class": "inactive"}
{"Compound": "O=C(NC(=S)Nc1cc(C(F)(F)F)ccc1Cl)c1ccccc1", "Label Class": "inactive"}
{"Compound": "Cc1ccc(C(=O)NC(=S)Nc2ccccc2C(F)(F)F)cc1", "Label Class": "active"}
{"Compound": "CC(C)C(=O)Nc1ccccc1N1CCN(C(=O)c2ccccc2)CC1", "Label Class": "active"}

[ask] How was "Cc1cccc(N2C(N)=NC(N)=NC23CCCCC3)c1" classified in this test?
[reply] inactive

[ask] How did this test come out for CC12CCC(C(=O)N(CSC(=S)N/N=C\c3ccccc3Cl)C1=O)C2(C)C (stereo not drawn) ?
[reply] active

[ask] Hi, do you know how "CCCCOC(=O)c1ccc(NC(=S)NC(=O)c2c(Br)c(C)nn2C)cc1" came out in this test?
[reply] active

[ask] Short answer needed: outcome of this test for "O=C(c1ccc(-c2ccccc2)cc1)N1CCN(c2ncccn2)CC1" ?
[reply] inactive

----------
Experiment Description: thallium influx changes without GIRK channels – cell-based, HEK-293 rmGlu8, no GIRK, thallium flux, counter-screen for GIRK activator project, confirmation (AID 623868);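 further: extra codes mark interference with 3 for fluorescent and 4 for baseline rise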
Details: thallium flux fluorescence, at 10 µM, actives lie on both sides, codes: 1 enhancer, -1 blocker, 0 none, thallium stimulus containing EC20 glutamate
The whole screen tested about 2,100 compounds, of which about 760 (36%) were called active.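 How the source made its calls: active means thallium-flux fluorescence traces judged by eye to show enhanced or reduced glutamate response, manual score 1 or -1, so both directions (some results past the limit were not filed as active); inactive means the rest, including fluorescent or raised-baseline compounds.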 A selection follows.
The reply should be one of these categories: 1 = active, -1 = inactive

Example cases with answers are listed next.
{"Compound": "COc1ccc(/C=C/C(=O)c2cc(Br)ccc(=O)c2O)cc1", "Label Class": 1}
{"Compound": "CCc1ccc(/C=C/C(=O)c2cc(Br)ccc(=O)c2O)cc1", "Label Class": 1}

[ask] Lab log entry: "COc1cc(OC)cc(C(=O)NC(=S)NCCc2ccccc2)c1" — outcome as called in the assay?
[reply] -1

[ask] Hi team, can someone confirm the assay call for "O=C(NC(=S)NCCc1ccccc1)c1ccco1" ?
[reply] 1

----------
Experiment Description: thallium influx changes without GIRK channels – cell-based, HEK-293 rmGlu8, no GIRK, thallium flux, counter-screen for GIRK activator project, confirmation (AID 623868);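 further: extra codes mark interference with 3 for fluorescent and 4 for baseline rise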
Details: thallium flux fluorescence, at 10 µM, actives lie on both sides, codes: 1 enhancer, -1 blocker, 0 none, thallium stimulus containing EC20 glutamate
The whole screen tested about 2,100 compounds, of which about 760 (36%) were called active. A selection follows.
Quantity Measured: manual score

// worked examples, manual score included
{"Compound": "N#CC(C#N)=C1C=C2C=C(N3CCCCCC3)CCC2CC1 (configuration not stated)", "manual score": "3 (inactive)"}
{"Compound": "C/C(=N/NC(=S)Nc1ccccc1)c1ccc2c(c1)OCO2", "manual score": "1 (active)"}
{"Compound": "CCOc1ccc2nc(NC(=O)C(CC)Sc3nc(C)cc(=O)[nH]3)sc2c1 (configuration not stated)", "manual score": "-1 (active)"}
{"Compound": "CCn1c(=O)c(C(=O)NCCCO)c(O)c2ccccc21", "manual score": "0 (inactive)"}
{"Compound": "CCn1c(CCNC(=O)c2cccs2)nnc1SCC(=O)Nc1ccc(Cl)cc1", "manual score": "0 (inactive)"}

[ask] State, in one line, measured manual score of CC(Cc1cccs1)NC(=O)Nc1ccc(Cl)cc1 (configuration not stated)
[reply] 0 (inactive)

[ask] Give the reported manual score for this compound. "O=C(Cc1cccs1)Nc1cccnc1"
[reply] 0 (inactive)

[ask] Name the recorded manual score of the compound listed here: "O=C(Nc1ccccc1)c1ccccc1NS(=O)(=O)c1ccc(Cl)s1"
[reply] 0.5 (inactive)

[ask] Return the recorded manual score value; entry: "O=C(CSc1nnc(-c2cccnc2)o1)OC1CCCCC1"
[reply] -0.5 (inactive)

[ask] Entry "Cn1ncc2cc(NC(=S)NC(=O)c3ccccc3)ccc21" needs its manual score filled in; supply it.
[reply] 1 (active)

[ask] Item "CCOC(=O)CSc1nnc(-c2ccccc2OC)o1" : provide manual score
[reply] -1 (active)

----------
Experiment Description: thallium influx changes without GIRK channels – cell-based, HEK-293 rmGlu8, no GIRK, thallium flux, counter-screen for GIRK activator project, confirmation (AID 623868);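 further: extra codes mark interference with 3 for fluorescent and 4 for baseline rise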
Details: thallium flux fluorescence, at 10 µM, actives lie on both sides, codes: 1 enhancer, -1 blocker, 0 none, thallium stimulus containing EC20 glutamate
Among all 2,100 compounds or so, about 760 (36%) were called active.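 How the source made its calls: active means thallium-flux fluorescence traces judged by eye to show enhanced or reduced glutamate response, manual score 1 or -1, so both directions (some results past the limit were not filed as active); inactive means the rest, including fluorescent or raised-baseline compounds.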 A selection follows.
Give your call using only these classes: 1.0 for active, 0.0 for inactive

As a guide, the following entries are already answered.
{"Smiles Text": "CCCCn1c(SCC(N)=O)nc2c(sc3ccccc32)c1=O", "Label Class": 1.0}
{"Smiles Text": "CCCCn1c(SCc2nc(N)nc(Nc3ccccc3C)n2)nc2ccccc2c1=O", "Label Class": 0.0}
{"Smiles Text": "CCCCn1c(SCC(=O)/C(C#N)=C(\\C)N)nc2ccccc2c1=O", "Label Class": 1.0}

[ask] What did the test return for "C/C(N)=C(/C#N)C(=O)CSc1nc2cc(Cl)ccc2c(=O)n1-c1ccc(C)cc1" ?
[reply] 1.0

[ask] Short answer needed: outcome of this test for "CC(C)CCn1c(SCC#N)nc2c(sc3ccccc32)c1=O" ?
[reply] 0.0

[ask] Tell me the assay call for "CCCCn1c(SCC(=O)NCc2ccco2)nc2ccccc2c1=O" please.
[reply] 1.0

----------
Experiment Description: thallium influx changes without GIRK channels – cell-based, HEK-293 rmGlu8, no GIRK, thallium flux, counter-screen for GIRK activator project, confirmation (AID 623868);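 further: extra codes mark interference with 3 for fluorescent and 4 for baseline rise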
Details: thallium flux fluorescence, at 10 µM, actives lie on both sides, codes: 1 enhancer, -1 blocker, 0 none, thallium stimulus containing EC20 glutamate
Among all 2,100 compounds or so, about 760 (36%) were called active. Not all results are given here.
Quantity Measured: manual score

{"Compound": "Fc1ccc(NC(=S)NN=C2CCCCCC2)cc1", "manual score": "1 (active)"}

[ask] Using the record for "Brc1ccccc1-c1nnc2sc(-c3ccc4c(c3)OCCO4)nn12" , state its measured manual score.
[reply] -1 (active)

[ask] Check the records and state manual score for Fc1cccc(C2NN=C(c3ccccc3)S2)c1 (centres undefined)
[reply] 1 (active)

[ask] Provide only the value of recorded manual score for "CC(C)(C)C(=O)NC(=S)NNC(=O)c1sc2ccccc2c1Cl"
[reply] 1 (active)

[ask] Given the compound "Clc1ccccc1-c1nnc2sc(-c3ccccn3)nn12" , write its reported manual score.
[reply] 0 (inactive)

[ask] Kindly indicate its recorded manual score. Item: "CCCCN(Cc1ccccc1)S(=O)(=O)c1ccc2[nH]c(=O)oc2c1"
[reply] 0 (inactive)
